Target: Cathepsin K (Homo sapiens)
Construct: gene CTSK
Sequence (P43235 115-329): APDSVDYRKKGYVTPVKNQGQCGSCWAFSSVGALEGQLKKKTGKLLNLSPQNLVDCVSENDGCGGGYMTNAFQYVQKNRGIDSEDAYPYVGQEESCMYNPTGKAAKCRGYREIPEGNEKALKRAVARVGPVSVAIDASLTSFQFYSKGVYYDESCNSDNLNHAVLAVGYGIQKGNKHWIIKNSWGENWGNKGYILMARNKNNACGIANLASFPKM
Assay: fluorescence enzyme assay with recombinant human Ctsk, LR-AFC substrate
Format: biochemical
pIC50: −log10 of the molar value.
QUANTITY_MEASURED: pIC50

1: C=C(C)C(CC=C(C)C)Cc1c(O)cc2c(c1O)C(=O)CC(c1ccc(O)cc1O)O2 (centres unmarked) [KF, Kushennol F]
2: C=C(C)[C@H](CC=C(C)C)Cc1c(O)cc(O)c2c1O[C@H](c1ccc(O)cc1O)CC2=O [SG, Sophoraflavanone G]
Q. Select one. Lower pIC50: 1 or 2 Write down the label of the entry you select.
A. 2
(2: 4.57, 1: 5.06)

Entry source: paper PMC5187916
